# Test system: K562 cells
# PROCEDURE SUMMARY: Cell growth inhibitory activity assay (CellTiter-Glo), K562 cells
# Assay type: cell-based
# DETAILS: Homo sapiens, 72 h, CTG cell viability
EXPERIMENTAL ENDPOINT: IC50

Worked cases, IC50 given:
SMILES ENTRY	EXPERIMENTAL ENDPOINT	RECORDED MEASUREMENT
C[C@@H]1COCc2nc3cc(C(=O)Nc4ccc(OC(F)(F)Cl)cc4)cc(-c4cnc5c(c4)-c4nn(-c6ncc(F)cn6)cc4C5)c3n21	IC50	≤ 5 nM
C[C@@H]1CCOc2nc3cc(C(=O)Nc4ccc(OC(F)(F)Cl)cc4)cc(-c4cnc5c(c4)C(=O)N(C)C5)c3n21	IC50	≤ 5 nM

Shifting focus to the molecule that follows.
If you can, please state the reported IC50 value of C[C@@H]1CCS(=O)(=O)c2nc3cc(C(=O)Nc4ccc(OC(F)(F)Cl)cc4)cc(-c4cnc5c(c4)C(=O)N(C)C5)c3n21 .
≤ 5 nM

Data origin: patent EP4768484A1
